# testMethodNotes: Aqueous solubility
# Type: physicochemical
# conditionParameters: aqueous buffer, kinetic from dmso stock; pH 5.4, 16 h, room temperature, 2% DMSO
quantity: solubility at 16 h (µM)
# output: bare number, implied unit µM

// solubility at 16 h lookup, compound = `C=C1[C@@H](O)[C@]2(O)OC[C@]34[C@H]2[C@@]2(C)[C@H](O)C(=O)C=C(C)[C@@H]2C[C@H]3OC(=O)[C@H](O)[C@@]14O` , result: 206

* * *

# testMethodNotes: Pharmacokinetics of eurycomanone in mice (intravenous and oral)
# Assay type: in vivo, CD-1 mice
# conditionParameters: CD-1, mouse, plasma, 10 mg/kg oral vs 1 mg/kg intravenous, read-out: Bioavailability (F)
quantity: bioavailability

For record C=C1[C@@H](O)[C@]2(O)OC[C@]34[C@H]2[C@@]2(C)[C@H](O)C(=O)C=C(C)[C@@H]2C[C@H]3OC(=O)[C@H](O)[C@@]14O [Eurycomanone] the listed bioavailability is 54.9%

* * *

# testMethodNotes: Liver microsome metabolic stability, human
# Type: in vitro ADME
# conditionParameters: human liver microsomes
quantity: half-life at 200 µM

For reference, reported half-life at 200 µM for `C=C1[C@@H](O)[C@]2(O)OC[C@]34[C@H]2[C@@]2(C)[C@H](O)C(=O)C=C(C)[C@@H]2C[C@H]3OC(=O)[C@H](O)[C@@]14O` stands at > 1.5 h

* * *

# testMethodNotes: Pharmacokinetics of eurycomanone (pure compound) in rats (intravenous and oral)
# Format: in vivo
# conditionParameters: male, Wistar, rat, plasma, 3 mg/kg intravenous, read-out: Volume of Distribution at Steady State (Vss)
quantity: Vd (L/kg)
Answer in L/kg, number only, no unit symbol.

Record C=C1[C@@H](O)[C@]2(O)OC[C@]34[C@H]2[C@@]2(C)[C@H](O)C(=O)C=C(C)[C@@H]2C[C@H]3OC(=O)[C@H](O)[C@@]14O [Eurycomanone] , field Vd: 0.95

* * *

# testMethodNotes: Pharmacokinetics of eurycomanone in mice (intravenous and oral)
# Assay type: in vivo, CD-1 mice
# conditionParameters: CD-1, mouse, 1 mg/kg intravenous, plasma, read-out: AUC0–8
quantity: AUC(0-t) (ng·h/mL)
Reply numerically in ng·h/mL, unit not repeated.

For this compound ( C=C1[C@@H](O)[C@]2(O)OC[C@]34[C@H]2[C@@]2(C)[C@H](O)C(=O)C=C(C)[C@@H]2C[C@H]3OC(=O)[C@H](O)[C@@]14O [Eurycomanone] ), measured AUC(0-t) is 221

* * *

# testMethodNotes: Plasma protein binding (rapid equilibrium dialysis), mice
# Type: in vitro ADME
# conditionParameters: mouse, pH 7.4, 37 °C, read-out: percentage bound to plasma protein (converted)
quantity: fraction unbound at 4 h, 10 µM
Answer as a number with no unit attached.

What the record says about C=C1[C@@H](O)[C@]2(O)OC[C@]34[C@H]2[C@@]2(C)[C@H](O)C(=O)C=C(C)[C@@H]2C[C@H]3OC(=O)[C@H](O)[C@@]14O [Eurycomanone] : fraction unbound at 4 h, 10 µM is 0.784

* * *

# testMethodNotes: Plasma protein binding (rapid equilibrium dialysis), rat
# Assay type: in vitro ADME
# conditionParameters: rat, plasma, pH 7.4, rat plasma, 10 µM, 37 °C, 4 h; read-out: percentage bound to plasma protein (converted)
quantity: fraction unbound at 4 h, 10 µM

Memo: `C=C1[C@@H](O)[C@]2(O)OC[C@]34[C@H]2[C@@]2(C)[C@H](O)C(=O)C=C(C)[C@@H]2C[C@H]3OC(=O)[C@H](O)[C@@]14O` , reported fraction unbound at 4 h, 10 µM: 0.699
